# measuredTarget: UGT8 (Mus musculus)
# Construct: Groups of 5 male C57Bl/6 mice, 6-9 wks of age (Charles River Laboratories); tissue Charles River Laboratories; host or cells: mouse kidney (adult C57Bl/6) and mid-/hind brain (neonatal P14-P21 mice)
# Sequence (Q64676 21-541): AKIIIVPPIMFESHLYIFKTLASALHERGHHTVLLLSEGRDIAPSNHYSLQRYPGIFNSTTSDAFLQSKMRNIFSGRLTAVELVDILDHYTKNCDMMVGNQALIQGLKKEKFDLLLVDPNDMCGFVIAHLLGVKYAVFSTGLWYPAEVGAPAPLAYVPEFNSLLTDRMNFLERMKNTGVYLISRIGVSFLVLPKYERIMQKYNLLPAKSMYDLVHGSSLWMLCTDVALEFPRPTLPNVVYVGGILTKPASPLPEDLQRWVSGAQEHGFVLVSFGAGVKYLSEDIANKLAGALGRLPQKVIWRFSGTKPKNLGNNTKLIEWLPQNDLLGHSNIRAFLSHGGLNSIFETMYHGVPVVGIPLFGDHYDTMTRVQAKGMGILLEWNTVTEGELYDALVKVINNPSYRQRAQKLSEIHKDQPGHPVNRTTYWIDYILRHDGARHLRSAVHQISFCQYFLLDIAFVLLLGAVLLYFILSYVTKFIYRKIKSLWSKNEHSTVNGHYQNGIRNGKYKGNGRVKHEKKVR
# assay: Acute in vivo target engagement in neonatal mouse brain: inhibition of de novo GalCer and SFT synthesis (13C-Gal incorporation)
# testConditions: neonatal mouse (P14-P21) brain, single oral dose 10 mg/kg, 5 hr
readoutType: brain GalCer % inh

structureAsSmiles: CNC(=O)c1csc2c(C(F)(F)F)cc(N3CCC(OC(=O)N[C@@H](C)COC(F)(F)F)CC3)nc12
reportedValue: A, A, A (A > 80%)

structureAsSmiles: CNC(=O)c1csc2c(C(F)(F)F)cc(N3CCC(OC(=O)NC4CC4)CC3)nc12
reportedValue: A, A, A (A > 80%)

structureAsSmiles: CNC(=O)c1csc2c(C(F)(F)F)cc(N3CCC(OC(=O)NC(C)C)CC3)nc12
reportedValue: A (A > 80%)

structureAsSmiles: CNC(=O)c1csc2c(C(F)(F)F)cc(O[C@@H]3CCN(C(=O)OCCOC(F)(F)F)[C@H](C)C3)nc12
reportedValue: A (A > 80%)

###

# measuredTarget: UGT8 (Mus musculus)
# Construct: Groups of 5 male C57Bl/6 mice, 6-9 wks of age (Charles River Laboratories); tissue Charles River Laboratories; host or cells: mouse kidney (adult C57Bl/6) and mid-/hind brain (neonatal P14-P21 mice)
# assay: Acute in vivo target engagement in mouse kidney: inhibition of de novo GalCer and SFT synthesis (13C-Gal incorporation)
# testConditions: single oral dose 1 mg/kg, 5 hr

structureAsSmiles: CNC(=O)c1csc2c(C(F)(F)F)cc(O[C@@H]3CCN(C(=O)OCCOC(F)(F)F)[C@H](C)C3)nc12
measuredTarget: UGT8 (Mus musculus)
kidney Sulfatide % inh: C (C < 40%)
//
structureAsSmiles: CNC(=O)c1csc2c(C(F)(F)F)cc(N3CCC(OC(=O)NC(C)C)CC3)nc12
measuredTarget: UGT8 (Mus musculus)
kidney Sulfatide % inh: C (C < 40%)
//
structureAsSmiles: CNC(=O)c1csc2c(C(F)(F)F)cc(N3CCC(OC(=O)N[C@@H](C)CF)CC3)nc12
measuredTarget: UGT8 (Mus musculus)
kidney Sulfatide % inh: C (C < 40%)

Data credit: patent US11098056B2
